This collection of values is drawn from PubChem BioAssay (NCI).

Please provide measured growth for the entries that follow.
- Tested on: A549/ATCC NSCLC
- measurement description: NCI-60 one-dose screen, 48 h (100 = growth as untreated, 0 = no growth, -100 = all killed)
- applied conditions: 10 µM unless noted
About 83,000 compounds went through this panel and 20% of them were active in at least one assay; those are over-represented in the sample as a whole.
One number for each entry, in %.

Consider the worked cases shown below.
> print(dat)
                                   molecule  measurement.type  measure.unit  reported
1  COc1ccc(Nc2[nH]n3c(=O)cc(C)nc3c2C(N)=O)c(OC)c1            growth             %      89.5
2  c1cc2[nH]ncc2cc1-c1nc2ccc3[nH]ncc3c2c2c1CCC2            growth             %      39.4
3        COc1ccc(-c2cnoc2-c2ccc(OC)cc2O)cc1            growth             %      40.9
4  COc1ccc(OC)c(C2OC(c3ccc4ccccc4c3O)=NN2C(C)=O)c1 (stereo unspecified)            growth             %      56.5
5        COC(=O)c1cc(=O)nc(N/N=C/c2ccco2)s1            growth             %       107

// each listed molecule needs a value for growth
1. O=C(O)Cc1cccc(=O)c(O)c1C(=O)O
2. COc1ccc(/C=C2\N=C(c3ccccc3)N(C(=O)c3ccccc3O)NC2=O)cc1
3. COc1ccc(C(=O)N2NC(=O)/C(=C/c3ccc(Br)cc3)N=C2c2ccccc2)cc1
4. O=[N+]([O-])c1ccc(Sc2ncccn2)c([N+](=O)[O-])c1
5. Cc1c(C(=O)/C=C/c2csc3ccccc23)[n+](=O)c2ccccc2n1[O-]
6. Cc1ccc(-c2cc3nc(-c4ccccc4)nc(C(Cl)Cl)n3n2)cc1

Result:
[104, 97.3, 87.6, 67.9, 61.7, -58.1]
